SUBJECT OF TEST: T1, human DLL3 on SHP-77 cells (human, UniProt Q9NYJ7 27-618)
T1 construct: also called DLL3-expressing cells (SHP-77)
T1 sequence: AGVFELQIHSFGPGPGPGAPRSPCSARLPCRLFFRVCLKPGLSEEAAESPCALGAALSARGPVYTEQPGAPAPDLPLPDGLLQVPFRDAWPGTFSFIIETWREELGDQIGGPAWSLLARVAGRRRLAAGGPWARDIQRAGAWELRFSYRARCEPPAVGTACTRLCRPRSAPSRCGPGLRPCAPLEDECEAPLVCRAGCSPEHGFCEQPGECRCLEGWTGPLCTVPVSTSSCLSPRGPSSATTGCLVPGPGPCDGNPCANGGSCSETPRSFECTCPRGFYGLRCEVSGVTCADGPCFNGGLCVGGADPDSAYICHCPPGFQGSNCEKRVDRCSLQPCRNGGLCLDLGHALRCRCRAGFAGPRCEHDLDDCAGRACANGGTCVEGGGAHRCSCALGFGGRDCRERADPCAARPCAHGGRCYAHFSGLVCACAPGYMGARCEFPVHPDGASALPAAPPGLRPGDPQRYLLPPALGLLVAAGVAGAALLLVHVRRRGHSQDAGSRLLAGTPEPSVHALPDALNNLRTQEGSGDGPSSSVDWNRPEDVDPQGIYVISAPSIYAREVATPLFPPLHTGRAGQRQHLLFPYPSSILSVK
PROCEDURE DETAILS: flow cytometry, SHP-77 cells
Entries annotated with measured pEC50
By convention, pEC50 is the negative base-10 log of a molar concentration.

See these solved cases before continuing.
Exercise: Returns the measured pEC50 for the input binder. Input: 46A5A4 mouse hybridoma-derived anti-DLL3 chimeric antibody (antibody, V domains shown) VH: QVQLQQSDAELVKPGASVKISCKVSGYTFTDHTIHWMKQRPEQGLEWIGYIYPRDGYTMYNEKFKGKATLTADKSSSTAYMQLNSLTSEDSAVHFCARAFHALDYWGQGTSVTVSS VL: DIQMTQTTSSLSASLGDRVTFTCSASQGISNYLNWYQQKPDGTIKLLIYYTSSLHSGVPSRFSGSGSGTDYSLTISNLEPEDIATYYCQQYSKLPYTFGGGTKLEIK
Key: 8.93

Exercise: Returns the measured pEC50 for the input binder. Input: 26C4D2 mouse hybridoma-derived anti-DLL3 chimeric antibody (antibody, V domains shown) VH: QVQLQQPGAELVKPGASVKLSCKASGYSFTSYWMHWVKQRPGQGLEWIGMIHPTLGDTNYNEKFKSKATLTVDKSSSTAYMELSSLTSEDSAVYYCARLGSLSMMDYWGQGTSVTVSS VL: DIQMTQTTSSLSASLGDRVTISCSASQGISNYLNWYQQKPDGTVKLLIYYTSSLHSGVPARFSGSGSGTDYSLTISNLEPEDIAIYYCQQYSKFPYTFGGGTKLEIK
Key: 9.22

Now turn to the next binder.
Exercise: Returns the measured pEC50 for the input binder. Input: 39E2D11-2 mouse hybridoma-derived anti-DLL3 chimeric antibody (antibody, V domains shown) VH: QVQLKQSGPGLVQPSQSLSITCTVSGFSLTSYGVHWVRQSPGKGLEWLGVIWSGGSTDYNAAFISRLSISKDNPKSQVFFKMNSLQADDTAIYYCARENYYGNSLWFFDVWGTGTTVTVSS VL: DIVLTQSPATLSVTPGDSVSLSCRASQSINNNLHWYQQKSHESPRLLIKYVSQSISGIPSRFSGSGSGTDFTLTINSVETEDFGMYFCQQTNSWPLTFGAGTKLELK
Key: 8.06
